tested on: A549; assay: Growth inhibition of human A549/ATCC cells at 10^-5 M after 48 hrs by Sulforhodamine B assay relative to control; type: functional; conditions: A549, 48 h, read-out: GI
Consider the following molecules; for each one, report its inhibition of growth at 10 µM.
Form entry: value (%) — number only.

Notebook entry, A549 assay: inhibition of growth at 10 µM of "c1ccc(N2CCN(c3nc(-c4ccncc4)nc4sc5c(c34)CCCCCC5)CC2)cc1" = ?
-0.56

Another molecule to check: "Clc1nc(-c2ccccn2)nc2sc3c(c12)CCCCCC3"
0.18

And what about the molecule "Clc1nc(-c2ccncc2)nc2sc3c(c12)CCCCCC3" ?
-3.56

And the next one, "c1ccc(N2CCN(c3nc(-c4ccccn4)nc4sc5c(c34)CCCCCC5)CC2)cc1" ?
68.2

What about "c1cc(-c2nc(N3CCOCC3)c3c4c(sc3n2)CCCCCC4)ccn1" ?
24.9

Another molecule: "CN1CCN(c2nc(-c3ccccn3)nc3sc4c(c23)CCCCCC4)CC1"
22.6

And then "NNc1nc(-c2ccncc2)nc2sc3c(c12)CCCCCC3" , what is it?
-1.81

###

tested on: NCI-H322M; assay: Growth inhibition of human NCI-H322M cells after 48 hrs by Sulforhodamine B assay; format: functional
Consider the following molecules; for each one, report its GI50.
Answer format: numeric, µM implied, no suffix.

Given the entry "c1ccc(-c2nc(N3CCOCC3)c3c4c(sc3n2)CCCCCC4)nc1" , report its measured GI50.
5.5

Would you mind doing "NNc1nc(-c2ccccn2)nc2sc3c(c12)CCCCCC3" as well?
5.37

Queued: "O=c1[nH]c(-c2ccccn2)nc2sc3c(c12)CCCCCC3"
85.1

Query "CN1CCN(c2nc(-c3ccncc3)nc3sc4c(c23)CCCCCC4)CC1" next
13.2

Now this one: "COc1ccc(N2CCN(c3nc(-c4ccccn4)nc4sc5c(c34)CCCCCC5)CC2)cc1"
5.5

###

tested on: NCI-H460; assay: Growth inhibition of human NCI-H460 cells at 10^-5 M after 48 hrs by Sulforhodamine B assay relative to control; type: functional; settings: NCI-H460, 48 h, read-out: GI
I'd be grateful if you could share measured inhibition of growth at 10 µM for these entries.
Use % as the unit, but write only the number.

Please look up its inhibition of growth at 10 µM: "Clc1nc(-c2ccncc2)nc2sc3c(c12)CCCCCC3"
-2.59

One more compound: "c1cc(-c2nc(N3CCOCC3)c3c4c(sc3n2)CCCCCC4)ccn1"
8.02

Now consider "c1ccc(N2CCN(c3nc(-c4ccncc4)nc4sc5c(c34)CCCCCC5)CC2)cc1" .
-6.17

Also "CN1CCN(c2nc(-c3ccccn3)nc3sc4c(c23)CCCCCC4)CC1" ?
2.79

Entry to check: "COc1ccc(N2CCN(c3nc(-c4ccncc4)nc4sc5c(c34)CCCCCC5)CC2)cc1"
5.35

Quick one: "NNc1nc(-c2ccncc2)nc2sc3c(c12)CCCCCC3"
-4.36

Again, but for "Clc1nc(-c2ccccn2)nc2sc3c(c12)CCCCCC3"
9.1

Next up: "c1ccc(N2CCN(c3nc(-c4ccccn4)nc4sc5c(c34)CCCCCC5)CC2)cc1"
46

###

experiment: Growth inhibition of human HCC2998 cells after 48 hrs by Sulforhodamine B assay; format: functional; conditions: HCC 2998, 48 h
GI50 strictly less than 10 µM = 1. Otherwise -1.

Dear colleague, could you confirm whether GI50 of "O=c1[nH]c(-c2ccccn2)nc2sc3c(c12)CCCCCC3" falls below 10 µM? Thanks.
-1

Next up: "CN1CCN(c2nc(-c3ccncc3)nc3sc4c(c23)CCCCCC4)CC1"
1

Same thing, different compound: "c1ccc(-c2nc(N3CCOCC3)c3c4c(sc3n2)CCCCCC4)nc1"
1

Next: "O=c1[nH]c(-c2ccncc2)nc2sc3c(c12)CCCCCC3"
-1

Next: "NNc1nc(-c2ccccn2)nc2sc3c(c12)CCCCCC3"
1

###

system: K562; assay: Growth inhibition of human K562 cells at 10^-5 M after 48 hrs by Sulforhodamine B assay relative to control; format: functional; conditions: K562, 48 h, read-out: GI
Give measured inhibition of growth at 10 µM for each item. Keep answers brief.
State the answer as a number, implicitly in %.

May I ask what inhibition of growth at 10 µM has been recorded for "COc1ccc(N2CCN(c3nc(-c4ccncc4)nc4sc5c(c34)CCCCCC5)CC2)cc1" ?
23.2

Next molecule: "CN1CCN(c2nc(-c3ccccn3)nc3sc4c(c23)CCCCCC4)CC1"
20

Try "c1ccc(N2CCN(c3nc(-c4ccccn4)nc4sc5c(c34)CCCCCC5)CC2)cc1" next.
79.2

# repeat for "NNc1nc(-c2ccncc2)nc2sc3c(c12)CCCCCC3"
24.7

Moving on to the next molecule: "Clc1nc(-c2ccccn2)nc2sc3c(c12)CCCCCC3"
20.2

Repeat for the following molecule: "c1cc(-c2nc(N3CCOCC3)c3c4c(sc3n2)CCCCCC4)ccn1"
29.3

Let us now turn to "Clc1nc(-c2ccncc2)nc2sc3c(c12)CCCCCC3"
13.6

Same question for "c1ccc(N2CCN(c3nc(-c4ccncc4)nc4sc5c(c34)CCCCCC5)CC2)cc1" please.
7.55

###

tested on: KM12; assay: Growth inhibition of human KM12 cells at 10^-5 M after 48 hrs by Sulforhodamine B assay relative to control; assay type: functional; conditions: KM12, 48 h, read-out: GI
Task for the reader: assign each of the following compounds its reported inhibition of growth at 10 µM.
State the answer as a number, implicitly in %.

Look at this compound and give its reported inhibition of growth at 10 µM. "Clc1nc(-c2ccccn2)nc2sc3c(c12)CCCCCC3"
8.45

Another compound to look at: "c1cc(-c2nc(N3CCOCC3)c3c4c(sc3n2)CCCCCC4)ccn1"
19.6

// query: "c1ccc(N2CCN(c3nc(-c4ccccn4)nc4sc5c(c34)CCCCCC5)CC2)cc1"
55

Same lookup for "c1ccc(N2CCN(c3nc(-c4ccncc4)nc4sc5c(c34)CCCCCC5)CC2)cc1" , please.
4.95

Thanks! And "COc1ccc(N2CCN(c3nc(-c4ccncc4)nc4sc5c(c34)CCCCCC5)CC2)cc1" ?
22.4

Then "NNc1nc(-c2ccncc2)nc2sc3c(c12)CCCCCC3" ?
-0.57

Continue with "CN1CCN(c2nc(-c3ccccn3)nc3sc4c(c23)CCCCCC4)CC1"
8.11

Same for "Clc1nc(-c2ccncc2)nc2sc3c(c12)CCCCCC3"
0.47

###

test: Growth inhibition of human HCC2998 cells at 10^-5 M after 48 hrs by Sulforhodamine B assay relative to control; format: functional; conditions: HCC 2998, 48 h, read-out: GI
Would you mind labelling by inhibition of growth at 10 µM? At or over -10% is 1, under is 0.

Item "NNc1nc(-c2ccncc2)nc2sc3c(c12)CCCCCC3" with inhibition of growth at 10 µM of -10% or above?
0

Further, for "COc1ccc(N2CCN(c3nc(-c4ccncc4)nc4sc5c(c34)CCCCCC5)CC2)cc1" ?
0

Repeat with "CN1CCN(c2nc(-c3ccccn3)nc3sc4c(c23)CCCCCC4)CC1"
1

"c1ccc(N2CCN(c3nc(-c4ccccn4)nc4sc5c(c34)CCCCCC5)CC2)cc1" , same question.
1

Subsequent entry: "Clc1nc(-c2ccccn2)nc2sc3c(c12)CCCCCC3"
1

Next record, please: "c1ccc(N2CCN(c3nc(-c4ccncc4)nc4sc5c(c34)CCCCCC5)CC2)cc1"
0

Follow-up item: "c1cc(-c2nc(N3CCOCC3)c3c4c(sc3n2)CCCCCC4)ccn1"
1

How about this compound: "Clc1nc(-c2ccncc2)nc2sc3c(c12)CCCCCC3"
0

###

tested on: RPMI-8226; assay: Growth inhibition of human RPMI8226 cells at 10^-5 M after 48 hrs by Sulforhodamine B assay relative to control; assay type: functional; conditions: RPMI-8226, 48 h, read-out: GI
Outcome: true (1) for inhibition of growth at 10 µM of at least 30%; false (0) for anything lower.

Hi, just wondering whether "Clc1nc(-c2ccncc2)nc2sc3c(c12)CCCCCC3" shows inhibition of growth at 10 µM of 30% or higher.
false (0)

Follow-up entry: "COc1ccc(N2CCN(c3nc(-c4ccncc4)nc4sc5c(c34)CCCCCC5)CC2)cc1"
false (0)

Moving on to the next molecule: "Clc1nc(-c2ccccn2)nc2sc3c(c12)CCCCCC3"
false (0)

Request: "c1ccc(N2CCN(c3nc(-c4ccccn4)nc4sc5c(c34)CCCCCC5)CC2)cc1"
true (1)

Ok, now "c1cc(-c2nc(N3CCOCC3)c3c4c(sc3n2)CCCCCC4)ccn1"
true (1)

Check "NNc1nc(-c2ccncc2)nc2sc3c(c12)CCCCCC3" too.
false (0)

Input "c1ccc(N2CCN(c3nc(-c4ccncc4)nc4sc5c(c34)CCCCCC5)CC2)cc1"
false (0)

What about "CN1CCN(c2nc(-c3ccccn3)nc3sc4c(c23)CCCCCC4)CC1" ?
false (0)
